# ASSAY_OVERVIEW: Cytotoxicity against pig LLC-PK11 cells after 48 hrs by neutral red dye staining
# Assay type: functional, cell-based
# EXPERIMENTAL_SETUP: Sus scrofa, LLC-PK11, 48 h
Lab note: anything with IC50 below 5 mg/L is marked y; values at 5 mg/L or higher are marked n.

{"columns": ["COMPOUND", "CLASSIFICATION"],
 "data": [
  ["C[C@@]12C[C@@H](O)C[C@]3(C)C4=CC(=O)OCC4=C[C@@H](OC1=O)C23 (some centres undefined)", "y"],
  ["C[C@]12C=CC[C@]3(C)C(=O)O[C@@H](C13)[C@H]1O[C@]13COC(=O)C=C32 (some centres undefined)", "n"],
  ["C[C@@]12C=C[C@H](O)[C@]3(C)C(=O)O[C@H](C=C4COC(=O)C=C41)C23 (some centres undefined)", "y"],
  ["C[C@]12CCC[C@](C)(C(=O)O)[C@@H]1C=C[C@]1(O)COC(=O)C[C@H]21 [OIDIOLACTONE E]", "y"],
  ["C[C@@]12CC[C@@H](O)[C@]3(C)C4=CC(=O)OCC4=C[C@@H](OC1=O)C23 (some centres undefined)", "n"],
  ["C[C@@]12C[C@@H](O)C[C@]3(C)C4=CC(=O)OC[C@]45O[C@@H]5[C@@H](OC1=O)C23 (some centres undefined)", "y"],
  ["C[C@]12C=C[C@H](O)[C@]3(C)C(=O)O[C@@H](C13)[C@H]1O[C@]13COC(=O)C=C32 (some centres undefined)", "y"],
  ["C[C@@]12C=CC[C@]3(C)C(=O)O[C@H](C=C4COC(=O)C=C41)C23 (some centres undefined)", "n"],
  ["C[C@@]12CCC[C@]3(C)C4=CC(=O)OCC4=C[C@@H](OC1=O)C23 (some centres undefined)", "n"]
]}

----------
# Tested on: Lactuca sativa
# ASSAY_OVERVIEW: Phytotoxicity against Lactuca sativa at 1 mg/ml
# Assay type: functional, organism-based
The source made the active and inactive calls. The rule behind the calls is not given here.

{"columns": ["MOLECULE", "Activity"],
 "data": [
  ["C[C@]12CC[C@@H](O)[C@]3(C)C(=O)O[C@@H](C13)[C@H]1O[C@]13COC(=O)C=C32 (some centres undefined)", "Active"],
  ["C[C@@]12C=CC[C@]3(C)C(=O)O[C@H](C=C4COC(=O)C=C41)C23 (some centres undefined)", "Active"],
  ["C[C@@]12C=C[C@H](O)[C@]3(C)C(=O)O[C@H](C=C4COC(=O)C=C41)C23 (some centres undefined)", "Active"],
  ["C[C@@]12CC[C@@H](O)[C@]3(C)C4=CC(=O)OCC4=C[C@@H](OC1=O)C23 (some centres undefined)", "Active"]
]}

----------
# Tested on: Agrostis stolonifera
# ASSAY_OVERVIEW: Phytotoxicity against Agrostis stolonifera at 1 mg/ml
# Type: functional, organism-based
Calls of active or inactive are those of the source. No cut-off for these calls is given here.
Possible outcomes: active, inactive

{"columns": ["MOLECULE", "CLASSIFICATION"],
 "data": [
  ["C[C@]12C=CC[C@]3(C)C(=O)O[C@@H](C13)[C@H]1O[C@]13COC(=O)C=C32 (stereo partly drawn)", "active"],
  ["C[C@@]12CC[C@@H](O)[C@]3(C)C(=O)O[C@H](C=C4COC(=O)C=C41)C23 (stereo partly drawn)", "active"],
  ["C[C@@]12CC[C@@H](O)[C@]3(C)C4=CC(=O)OCC4=C[C@@H](OC1=O)C23 (stereo partly drawn)", "active"],
  ["C[C@@]12C[C@@H](O)C[C@]3(C)C4=CC(=O)OCC4=C[C@@H](OC1=O)C23 (stereo partly drawn)", "active"],
  ["C[C@]12C=C[C@H](O)[C@]3(C)C(=O)O[C@@H](C13)[C@H]1O[C@]13COC(=O)C=C32 (stereo partly drawn)", "active"],
  ["C[C@@]12C=C[C@H](O)[C@]3(C)C(=O)O[C@H](C=C4COC(=O)C=C41)C23 (stereo partly drawn)", "active"],
  ["C[C@@]12CC[C@@H](O)[C@]3(C)C4=CC(=O)OC[C@]45O[C@@H]5[C@@H](OC1=O)C23 (stereo partly drawn)", "active"],
  ["C[C@]12CC[C@@H](O)[C@]3(C)C(=O)O[C@@H](C13)[C@H]1O[C@]13COC(=O)C=C32 (stereo partly drawn)", "active"],
  ["C[C@@]12CCC[C@]3(C)C4=CC(=O)OCC4=C[C@@H](OC1=O)C23 (stereo partly drawn)", "active"],
  ["C[C@@]12C[C@@H](O)C[C@]3(C)C4=CC(=O)OC[C@]45O[C@@H]5[C@@H](OC1=O)C23 (stereo partly drawn)", "active"],
  ["C=C1C(O)CC2[C@](C)(CCC[C@]2(C)C(=O)O)C1CC(=O)O (stereo partly drawn)", "inactive"],
  ["C[C@@]12C=CC[C@]3(C)C(=O)O[C@H](C=C4COC(=O)C=C41)C23 (stereo partly drawn)", "active"],
  ["C[C@]12CCC[C@](C)(C(=O)O)[C@@H]1C=C[C@]1(O)COC(=O)C[C@H]21", "active"]
]}

Source: ChEMBL document CHEMBL1153751
